Data origin, for the record: PubChem BioAssay (NCI)

Listing of entries alongside the reported TGI.
# Test system: NCI/ADR-RES ovarian
# Experiment description: NCI tumour cell line growth inhibition, 48 h

In [3]: df
Out[3]:
                                   compound  meas_value
0             CCOC(=O)/C=C/CC(C)(C)COC(C)=O     > 10 µM
1  CN1CCC23c4c5ccc(Oc6nnnn6-c6ccccc6)c4OC2c2[nH]c4ccccc4c2CC3(O)C1C5 (stereo not given)     19.7 µM
2  CC12CCCC(C(=O)O)(C1)[C@H](C(C)(C)C(=O)O)CC2 (stereo not given in full)    > 100 µM
3  O=C(/C=C/c1cccc([N+](=O)[O-])c1)N1CCN(CCOC(c2ccccc2)c2ccccc2)CC1    > 100 µM
4  CC(=O)OC1Oc2ccccc2-c2oc(=O)c(-c3cc4ccc(N(C)C)cc4oc3=O)cc21 (stereo not given)     34.7 µM
5  CC[C@@]1(O)C(=O)OCc2c1cc1n(c2=O)Cc2c-1nc1ccccc1c2/C=N\NC(=O)C[n+]1ccccc1    > 100 µM

Report TGI for CCOc1cccc(C=Nc2ccccc2SSc2ccccc2N=Cc2cccc(OCC)c2O)c1O please. > 100 µM

Report TGI for CN/N=C(/CCN1CCCC1)CC(c1ccccc1)c1c(O)c2ccccc2oc1=O (stereo not given) please. > 100 µM

Report TGI for Cc1cc(C)c(C(=O)CC(=O)c2cccnc2)c(C)c1 please. 9.88 µM

Report TGI for CCc1[nH]c(=O)nc(N)c1-c1ccc(N2CCCCC2)c([N+](=O)[O-])c1 please. > 100 µM

----------
# Test system: XF 498 CNS
# Experiment description: NCI tumour cell line growth inhibition, 48 h
Where a SMILES comes first, the peptide text is derived from it. [ ]: non-standard residue; d: D form. Phe(4-Cl) = N[CH](Cc1ccc(Cl)cc1)C(=O)O
Experimental readout: TGI (µM)
# output: bare number, implied unit µM

Compound	Unit info	TGI
CC(O)C(NC(=O)C(Cc1ccccc1)NC(=O)C(NC(=O)C(CCCCN)NC(=O)C(Cc1c[nH]c2ccccc12)NC(=O)C(Cc1ccc(O)cc1)NC(=O)C(Cc1ccc(Cl)cc1)NC(=O)C(N)Cc1ccccc1)C(C)O)C(N)=O (configuration not stated) (H-F[Phe(4-Cl)]YWKTFT-NH2; configuration not given here)	µM	28.9

Report TGI for CCC1CN2CCc3cc(OC)c(OC)cc3C2CC1CC1c2cc(OC)c(OC)cc2CCN1C(=O)C(N)Cc1ccccc1 (configuration not stated) please. 10.5

Report TGI for NCC(Cl)C(O)c1cnc(N)[nH]1 (configuration not stated) please. 9.23

Report TGI for CC(C)=CCc1c(O)cc(O)c2c1OC(c1ccc(O)cc1)C(O)C2=O (configuration not stated) please. 70.3

Report TGI for C[N+](C)(C)CC1CCCC(C[N+](C)(C)C)C1=O (configuration not stated) please. 0.898

Report TGI for COc1ccc2c(c1)C=C([N+](=O)[O-])C(C1OC(C)(C)OC1C1COC(C)(C)O1)O2 (configuration not stated) please. 22.9

Report TGI for CCC1(O)C(=O)OCc2c1cc1n(c2=O)Cc2cc3ccc(C=O)cc3nc2-1 (configuration not stated) please. 19.2

----------
# Tested on: SW-620 colon
# Experiment description: NCI tumour cell line growth inhibition, 48 h; in the data active = GI50 below about 0.43 µM; inactive = the rest
Form entry, call: pick from label 1 (active), label 0 (inactive)

Known results for compounds:
>>> print(df.to_string())
                                   compound  assigned_class
0  COC(=O)Nc1nc2ccc(Oc3ccc(NC(=O)Nc4ccccc4)cc3)cc2[nH]1         label 1
1  CC(=O)OC1CC(O)C23COC(O)C1(C)C2CC(O)C1(C)C3C(=O)C(O)C2(C)C(c3ccoc3)CC3OC321 (stereo not given)         label 1
2  COc1cc(OC)c(/C=C/C(=O)c2c(OC)cccc2OC)c(OC)c1         label 1
3           O=C(N/N=C/c1cccc(O)c1O)c1ccccc1         label 0
4  CCOC(=O)c1cc(/C(=N\O)c2cc(OC)c(OC)c(OC)c2)n2cc(C)cc(C)c12         label 0
5  CC1CN1CC(O)C(O)CN1CC1C (stereo not given)         label 0

Kindly provide the recorded test outcome for the following compound: COc1ccc(C(=O)COc2cccc(/C=C3\COc4ccc5ccccc5c4C3=O)c2)cc1 label 0
